- study target: T1, histidine-tagged human uPAR (Sino#10925-H08H) (human, UniProt Q03405 23-303)
- T1 construct: also called uPAR-His
- procedure details: BLI (Octet), antibody on anti-mouse Fc sensor, uPAR in solution
recorded metric: pKd
Numbers only, as −log10 of the molar value.

Completed entries (count: 3):
[[record]]
binder = "M8 (antibody, V domains shown, Mouse hybridoma antibody; also called anti-uPAR antibody M8; parental M8) VH: QIQLVQSGPELKKPGETVKISCKASGNTFTDYGMNWVKQSPGKGLKWMGWINTNTGEPTYADDFKGRFAFSLETSASTAYLQINNLKNEDMATYFCAHYSFDYWGQGTTLTVSS VL: DIQMTQSPASLSVSVGQTVTITCRTSENIYSNLAWYQQKPGKSPQLLVYAATNLADGVPSRFSGSGSGTQYSLKINSLQSEDFGSYYCQHFWGTPWTFGGGTKLEIK"
endpoint_value = 8.97

[[record]]
binder = "M1 (antibody, V domains shown, Mouse hybridoma antibody; also called anti-uPAR antibody M1; parental M1) VH: EVQLQQSGAELVRPGASVKLSCTASGFNIKDEYINWVKQRPEQGLEWIGWIDPENGDTEYASKFQGKATITADTSSNTAYLQLSSLTSEDTAVYYCTGGNYVGWFPYWGQGTLVTVSA VL: QIVLTQSPAIMSASPGEKVTMTCSASSSVSYMHWYQQKSGTSPKRWLYDTSKLASGVPARFSGSGSGTSYSLTISSMEAEDAATYYCQQWSSNPPYTFGGGTKLEIK"
endpoint_value = 9.29

[[record]]
binder = "M5 (antibody, V domains shown, Mouse hybridoma antibody; also called anti-uPAR antibody M5; parental M5) VH: QVQLKESGPGLVAPSQSLSITCTVSGFSLTNYGVHWVRQPPGKDLEWLVVIWSDGGTTYNSALKSRLSISKDNSKSQVFLKMNSLQTDDTAMYYCARGGRSDLFAYWGQGTLVTVSA VL: DVLMTQTPLSLPVSLGDQASISCRSSQSIVHSNGNTYLEWYLQKPGQSPKLLIYKVSNRFSGVPDRFSGSGSGTDFTLKISRVEAEDLGVYYCFQGSHVPYTFGGGTKLEIK"
endpoint_value = 7.48


// next entry
Provide pKd value for the following binder: M43 (antibody, V domains shown, Mouse hybridoma antibody; also called anti-uPAR antibody M43; parental M43) VH: QVQLQQSGAELARPGASVNLSCKASGYTFTSYGISWVKQRTGQGLEWIGEIYPRSGNTYYNEKFKGKATLTADKSSRTAYMELRSLTSEDSAVYFCAGKDYGSTYADYWGQGTTLTVSS VL: QIVLTQSPAIMSASPGEKVTMTCSASSSVSSRYLHWYQQKSGASPKLWIYGTSNLASGVPARFSGSGSGTSYSLTINSVEAEDAATYYCQQYHSDPLTFGAGTKLELK
8.13
